Below is a list of entries, each paired with its recorded % Inhibition @10 µg/ml, Heregulin-induced MCF7 cell proliferation value.
System Tested: human ErbB2, full length, on cells (B300.19/hErbB2 clone #44; MCF7; BT474; SKBR3) (human)
Please state the figure in %; there is no need to write the unit.

Sample answers from the record:
monoclonal antibody 1.14.1 (antibody, V domains shown) VH: QLQLQESGPGLVKPSETLSLTCTVSGDSISSFIYYWGWIRQPPGKGLEWIGTIYYSGSTYYNPSLKSRVTISVDTSKNQFSLKLRSVTAADTAVYYCARHHWVFDYWGQGTQVTVSS VL: DIVLTQFPDFQSVTPKEKVTITCRASQVIGSSLHWYQQKPDQSPKLLIKYASQSFSGVPSRFSGSGSGTDFTLTINSLEVEDAATYYCHQSTILPWTFGQGTKVEVK
96
monoclonal antibody 1.100.1 (antibody, V domains shown) VH: QLQLQESGPGLVKPSETLSLTCTVSGGFISSSSYYWGWIRQPPGKGLEWIGTIYYSGTTYYNSSLKSRVTISVDTSQNQFSLKLSSVTAADTAVYYCARHHWVFDYWGQGTLVTVSS VL: EVVLTQSPDFQSVTPKEKITITCRASQIIGTSLHWYQKKPDQSPKLLIKYASQSFSGVPSRFSGSGSGTEFTLTINSLEAEDTATYYCHQSTNLPWTFGQGTKVEIK
95
monoclonal antibody 1.96 (antibody, V domains shown) VH: EVQLVESGGGLVQPGGSLRLSCAASGFTFSSYWMSWVRQAPGKGLEWVANIKQDGSEKYYVDSVKGRFTISRDNAKNSLYLQMNSLRAEDTAVYYCARWGVFGSGSYYIPFDYWGQGTLVTVSS VL: DIQMTQSPSSLSASVGDRVTITCRASHSITRYINWYQQKPGKAPNLLIYAASSLQSGVPSRFSGSGSGTDFTLTISSPQPEDFATYYCQQSYSSPPITFGQGTRLEIK
98
monoclonal antibody 1.43 (antibody, V domains shown) VH: QVQLVESGGGLVKPGGSLRLSCAASGFTFSDYYMNWIRQAPGKGLEWVSYISSSGSIIYYADSVKGRFTISRDNAKNSLYLQMNSLRAEDTAVYYCAREGRIAARGMDVWGQGTTVTVSS VL: DIQMTQSPSSLSASVGDRVSITCRPSQSFSRYINWYQQKPGKAPKLLIHAASSLVGGVPSRFSGSGSGTDFTLTISSLQPEDFATYYCQQTYSNPPITFGQGTRLEMK
53
monoclonal antibody 1.18.1 (antibody, V domains shown) VH: QVQLVESGGGVVQPGRSLRLSCAASGFTFSSYGMHWVRQAPGKGLEWVAVIWYDRSNKYYADSVKGRFTISRDNSKNTLYLQMDSLRAEDTAVYYCAGGRSRGAFDYWGQGTLVTVSS VL: DIQMTQSPSSLSASVGDRVTITCRASQGIRNYLAWFQQKPGKAPKSLIYAASSLQSGVPSTFSGSGSGTHFTLTISSLQPEDFASYFCQQYEIYPLTFGGGTKVEIK
94
monoclonal antibody 1.20 (antibody, V domains shown) VH: QLQLQESGPGLVKPSETLSLTCTVSGGSISSSNYYWGWIRQPPGKGLEWIGTIYYTGSTYYNPSLKSRVTISVDTSKNQFSLKLSSVTAADTAVYYCARHHWVFDYWGQGTLVTVSS VL: DIQMTQSPSSVSASVGDRVTITCRASQGISSWLAWYQQKPGKAPKLLIYAASSLQSGVPSRFSGSGSGTDFTLTISSLQPEDFATYYCQRTNSFPRTFGQGTKVEIK
100

Now take the following binder into account.
Please look up its % Inhibition @10 µg/ml, Heregulin-induced MCF7 cell proliferation: monoclonal antibody 1.39 (antibody, V domains shown) VH: QLQLQESGPGLVKPSETLSLTCTVSGGSISSSTYYWGWIRQPPGKGLEWIGTIYYSGSTYYNPSLKSRVTISVDTSKNQFSLKLNSVTAADTAVYYCARHHWVFDYWGQGTLVTVSS VL: EIVLTQSPDFLSVTPKEKVTITCRASQIIGSSLHWYQQKPDQSPKLLIKYASQSFSGVPSRFSGSGSGTDFTLTLNSLEAEDAATYYCHQSTILPWTFGQGTKVEIK
89
